assay: BIC plasma pharmacokinetics, Phase 1 open-label single-dose DDI study GS-US-380-3909 (B/F/TAF 50/200/25 mg with antacid or mineral supplements); type: in vivo, human; settings: both sexes, human, plasma, oral, BIC VZ/F, mean (%CV), Cohort 1 fasted; B/F/TAF alone; N = 14
quantity.measured: Vd/F (L)
Give bare numbers, in L.

[Q] Annotate the compound O=C(NCc1c(F)cc(F)cc1F)c1cn2c(c(O)c1=O)C(=O)N1[C@H]3CC[C@H](C3)O[C@@H]1C2 [BIC, bictegravir] with its measured Vd/F.
[A] 11.8

====

experiment: BIC plasma pharmacokinetics, Phase 1 open-label single-dose DDI study GS-US-380-3909 (B/F/TAF 50/200/25 mg with antacid or mineral supplements); type: in vivo, human; details: both sexes, human, plasma, oral, BIC VZ/F, mean (%CV), Cohort 2 fasted; B/F/TAF 2 hours before aluminum/magnesium-containing antacid; N = 13
quantity.measured: Vd/F
Note: state the figure and append the unit.

[Q] Fill in Vd/F for record `O=C(NCc1c(F)cc(F)cc1F)c1cn2c(c(O)c1=O)C(=O)N1[C@H]3CC[C@H](C3)O[C@@H]1C2`
[A] 14.4 L
